Test system: HCT116 p53wt (human colorectal adenocarcinoma, wild-type p53)
Experiment: Cytotoxic MTT test, HCT116 p53wt
Assay type: cell-based
Conditions: Homo sapiens, HCT-116, HCT116 p53wt cells, 72 h

{"molecule": "COC(=O)[C@@]12CC[C@]3(C)C(CCC4[C@@]5(C)CC[C@H](OC6CC(OC(C)=O)C(OC(C)=O)C(COC(C)=O)O6)C(C)(C)C5CC[C@]43C)C1=C(C(C)C)C(=O)C2 (stereo partly shown)", "IC50": "1600 nM"}

====

A collection of molecules and their measured IC50
Tested on: U87Mg (human glioblastoma)
Assay: Cytotoxic MTT test, U87Mg
Type: cell-based
Settings: U87Mg cells, 72 h
quantity: IC50 (µM)

{"molecule": "CC(=O)OC[C@H]1O[C@H](OC[C@@]23CC[C@]4(C)C(CCC5[C@@]6(C)CC[C@H](OC(C)=O)C(C)(C)C6CC[C@]54C)C2=C(C(C)C)C(=O)C3)C[C@@H](OC(C)=O)[C@H]1OC(C)=O (some centres unmarked)", "limit sign": "≥", "readout number": 250}
{"molecule": "COC(=O)[C@@]12CC[C@]3(C)C(CCC4[C@@]5(C)CC[C@H](O[C@@H]6C[C@@H](O)[C@@H](O)[C@@H](CO)O6)C(C)(C)C5CC[C@]43C)C1=C(C(C)C)C(=O)C2 (some centres unmarked)", "limit sign": "=", "readout number": 53}
{"molecule": "COC(=O)[C@@]12CC[C@]3(C)C(CCC4[C@@]5(C)CC[C@H](O[C@@H]6C[C@@H](O)[C@H](O)[C@@H](CO)O6)C(C)(C)C5CC[C@]43C)C1=C(C(C)C)C(=O)C2 (some centres unmarked)", "limit sign": "=", "readout number": 42.7}
{"molecule": "CC(=O)OC[C@H]1O[C@H](OC[C@@]23CC[C@]4(C)C(CCC5[C@@]6(C)CC[C@H](OC(C)=O)C(C)(C)C6CC[C@]54C)C2=C(C(C)C)C(=O)C3)C[C@@H](OC(C)=O)[C@@H]1OC(C)=O (some centres unmarked)", "limit sign": "≥", "readout number": 250}
{"molecule": "CC(=O)OC[C@H]1O[C@H](OC[C@@]23CC[C@]4(C)C(CCC5[C@@]6(C)CC[C@H](OC(C)=O)C(C)(C)C6CC[C@]54C)C2=C(C(C)C)C(=O)C3)C[C@@H](Br)[C@@H]1OC(C)=O (some centres unmarked)", "limit sign": "≥", "readout number": 250}
